- ASSAY SYSTEM: MAPK1 (ERK2) (Homo sapiens, UniProt P28482)
- Construct: purchased Life Technologies Corporation
- Sequence (P28482 whole entry): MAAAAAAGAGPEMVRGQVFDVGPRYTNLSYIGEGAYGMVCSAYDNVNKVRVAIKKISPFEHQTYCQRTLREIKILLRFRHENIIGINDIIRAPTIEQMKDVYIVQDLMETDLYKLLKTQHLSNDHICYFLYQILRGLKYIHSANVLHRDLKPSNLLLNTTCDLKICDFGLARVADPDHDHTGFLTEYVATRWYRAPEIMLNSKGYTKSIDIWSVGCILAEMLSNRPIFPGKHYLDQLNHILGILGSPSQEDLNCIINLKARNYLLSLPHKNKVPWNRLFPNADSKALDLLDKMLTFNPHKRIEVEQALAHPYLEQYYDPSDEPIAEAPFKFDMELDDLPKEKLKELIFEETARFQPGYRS
- EXPERIMENT: Kinase selectivity, Z'-LYTE platform
- Format: biochemical
- TEST SETTINGS: 1 micromolar compound, read-out: percent inhibition MAPK1 (ERK2)
METRIC NAME: inhibition at 1 µM (%)

| SAMPLE SMILES | READOUT UNIT | inhibition at 1 µM |
| --- | --- | --- |
| CC1(Oc2ccc3[nH]nc(-c4ccnc(N5CCOCC5)c4)c3c2)CC1 | % | 23 |
| C[C@@H]1CN(c2cc(-c3n[nH]c4ccc(OC5(C)CC5)cc34)ccn2)CCO1 | % | 18 |

[a] C[C@H]1CN(c2cc(-c3n[nH]c4ccc(OC5(C)CC5)cc34)ccn2)CCO1
[b] C[C@@H]1CN(c2cc(-c3n[nH]c4ccc(OC5(C)CC5)cc34)ccn2)C[C@H](C)O1
Query: Which value of inhibition at 1 µM is greater, the one for a or the one for b ? Reply with the label of the item you choose.
Response: a
